Biological target: PI3K γ (Homo sapiens, UniProt P48736)
Construct: purchased Sigma
Sequence (P48736 whole entry): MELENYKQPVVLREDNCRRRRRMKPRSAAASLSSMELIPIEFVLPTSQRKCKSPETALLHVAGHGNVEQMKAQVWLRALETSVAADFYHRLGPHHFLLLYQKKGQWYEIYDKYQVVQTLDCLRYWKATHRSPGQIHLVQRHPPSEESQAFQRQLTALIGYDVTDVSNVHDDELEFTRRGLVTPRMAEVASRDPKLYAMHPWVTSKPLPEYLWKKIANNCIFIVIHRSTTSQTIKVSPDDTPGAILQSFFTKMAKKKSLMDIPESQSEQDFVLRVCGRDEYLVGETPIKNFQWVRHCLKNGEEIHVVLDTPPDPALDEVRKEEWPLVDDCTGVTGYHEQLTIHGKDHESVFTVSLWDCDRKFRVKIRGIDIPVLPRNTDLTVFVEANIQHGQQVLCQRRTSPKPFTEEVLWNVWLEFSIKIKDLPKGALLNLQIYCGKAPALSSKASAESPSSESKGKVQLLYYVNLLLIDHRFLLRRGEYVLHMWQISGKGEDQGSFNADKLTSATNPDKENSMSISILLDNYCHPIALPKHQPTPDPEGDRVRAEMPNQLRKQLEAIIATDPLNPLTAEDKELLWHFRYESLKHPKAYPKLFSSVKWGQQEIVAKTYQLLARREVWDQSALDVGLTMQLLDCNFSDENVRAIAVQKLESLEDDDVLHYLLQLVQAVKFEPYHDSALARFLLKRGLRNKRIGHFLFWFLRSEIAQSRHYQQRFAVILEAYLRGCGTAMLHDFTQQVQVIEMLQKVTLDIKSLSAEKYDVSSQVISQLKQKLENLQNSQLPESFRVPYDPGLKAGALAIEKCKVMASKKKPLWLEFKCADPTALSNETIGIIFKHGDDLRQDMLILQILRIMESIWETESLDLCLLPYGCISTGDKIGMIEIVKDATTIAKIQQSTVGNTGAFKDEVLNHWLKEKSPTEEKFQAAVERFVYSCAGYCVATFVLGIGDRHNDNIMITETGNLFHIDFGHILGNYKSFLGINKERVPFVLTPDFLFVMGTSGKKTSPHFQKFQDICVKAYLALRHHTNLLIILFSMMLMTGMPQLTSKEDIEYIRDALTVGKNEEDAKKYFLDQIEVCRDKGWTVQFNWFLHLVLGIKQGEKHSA
Assay: PI3K lipid kinase inhibition assay (TLC or HTRF), PI3K γ
Assay type: biochemical
Conditions: In Vitro
PROPERTY: IC50

molecule="Cc1cccc2cc(C(C)Nc3nc(Cl)ncc3N)n(-c3ccccc3)c(=O)c12 (centres unmarked)" result="> 10000 nM"
molecule=Cc1ccccc1-n1c(Cn2cnc3c(N)ncnc32)cc2cccc(C)c2c1=O result="> 10000 nM"
molecule=Cc1cccnc1-n1c(Cn2nc(-c3cccc(O)c3)c3c(N)ncnc32)cc2ccccc2c1=O result="< 10000 nM"
molecule=Cc1ccccc1-n1c(Cn2nc(I)c3c(N)ncnc32)cc2cccc(C)c2c1=O result="< 1000 nM"

Shifting focus to the molecule that follows.
Lab book: IC50 of `Cc1cccc2cc(Cn3nc(-c4ccc5nc(N)oc5c4)c4c(N)ncnc43)n(-c3ccccc3)c(=O)c12` noted as < 100 nM

---

Measured IC50 values are reported for all entries that follow.
Target: PI3K α (Homo sapiens, UniProt P42336)
Construct: purchased Upstate
Sequence (P42336 whole entry, one chain of several): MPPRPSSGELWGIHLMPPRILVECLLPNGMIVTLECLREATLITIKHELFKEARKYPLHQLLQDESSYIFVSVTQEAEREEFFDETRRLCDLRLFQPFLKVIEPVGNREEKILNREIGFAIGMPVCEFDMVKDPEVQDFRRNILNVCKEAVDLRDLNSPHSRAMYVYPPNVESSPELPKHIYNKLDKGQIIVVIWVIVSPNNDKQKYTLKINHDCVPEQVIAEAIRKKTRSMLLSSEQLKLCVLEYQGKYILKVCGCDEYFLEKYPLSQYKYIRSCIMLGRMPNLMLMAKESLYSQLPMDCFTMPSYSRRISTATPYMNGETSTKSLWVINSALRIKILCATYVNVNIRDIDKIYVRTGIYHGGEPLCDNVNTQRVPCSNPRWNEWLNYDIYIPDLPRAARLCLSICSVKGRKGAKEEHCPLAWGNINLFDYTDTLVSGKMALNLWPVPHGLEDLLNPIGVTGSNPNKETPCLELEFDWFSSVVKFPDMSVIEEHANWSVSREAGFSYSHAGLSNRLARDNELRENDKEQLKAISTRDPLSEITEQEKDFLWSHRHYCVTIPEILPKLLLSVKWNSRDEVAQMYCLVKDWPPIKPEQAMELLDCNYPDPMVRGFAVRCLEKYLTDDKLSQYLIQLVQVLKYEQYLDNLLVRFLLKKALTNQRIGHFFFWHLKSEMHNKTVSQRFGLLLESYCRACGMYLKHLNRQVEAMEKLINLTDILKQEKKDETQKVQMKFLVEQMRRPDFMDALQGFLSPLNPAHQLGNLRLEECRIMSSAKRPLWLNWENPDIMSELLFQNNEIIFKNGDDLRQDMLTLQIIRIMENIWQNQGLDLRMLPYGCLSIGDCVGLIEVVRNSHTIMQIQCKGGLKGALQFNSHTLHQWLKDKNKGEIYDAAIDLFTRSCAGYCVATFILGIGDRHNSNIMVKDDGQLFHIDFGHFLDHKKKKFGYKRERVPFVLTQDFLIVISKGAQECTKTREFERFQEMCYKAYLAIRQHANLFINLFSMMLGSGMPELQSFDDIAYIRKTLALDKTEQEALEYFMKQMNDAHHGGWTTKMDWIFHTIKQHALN
Assay: PI3K lipid kinase inhibition assay (TLC or HTRF), PI3K α
Format: biochemical
Conditions: In Vitro

molecule=Cc1cccc2cc(Cn3nc(-c4ccc5nc(N)oc5c4)c4c(N)ncnc43)n(-c3ccccc3)c(=O)c12 property=IC50 result="< 10000 nM"

Lab book: IC50 of `CC(=O)Nc1nc2ccc(-c3nn(Cc4cc5cccc(C)c5c(=O)n4-c4ccccc4C)c4ncnc(N)c34)cc2s1` noted as < 10000 nM

Lab book: IC50 of Cc1cccc2cc(C(C)Nc3nc(Cl)ncc3N)n(-c3ccccc3)c(=O)c12 (stereo not drawn) noted as > 10000 nM

---

Target: PI3K δ (Homo sapiens, UniProt O00329)
Sequence (O00329 whole entry): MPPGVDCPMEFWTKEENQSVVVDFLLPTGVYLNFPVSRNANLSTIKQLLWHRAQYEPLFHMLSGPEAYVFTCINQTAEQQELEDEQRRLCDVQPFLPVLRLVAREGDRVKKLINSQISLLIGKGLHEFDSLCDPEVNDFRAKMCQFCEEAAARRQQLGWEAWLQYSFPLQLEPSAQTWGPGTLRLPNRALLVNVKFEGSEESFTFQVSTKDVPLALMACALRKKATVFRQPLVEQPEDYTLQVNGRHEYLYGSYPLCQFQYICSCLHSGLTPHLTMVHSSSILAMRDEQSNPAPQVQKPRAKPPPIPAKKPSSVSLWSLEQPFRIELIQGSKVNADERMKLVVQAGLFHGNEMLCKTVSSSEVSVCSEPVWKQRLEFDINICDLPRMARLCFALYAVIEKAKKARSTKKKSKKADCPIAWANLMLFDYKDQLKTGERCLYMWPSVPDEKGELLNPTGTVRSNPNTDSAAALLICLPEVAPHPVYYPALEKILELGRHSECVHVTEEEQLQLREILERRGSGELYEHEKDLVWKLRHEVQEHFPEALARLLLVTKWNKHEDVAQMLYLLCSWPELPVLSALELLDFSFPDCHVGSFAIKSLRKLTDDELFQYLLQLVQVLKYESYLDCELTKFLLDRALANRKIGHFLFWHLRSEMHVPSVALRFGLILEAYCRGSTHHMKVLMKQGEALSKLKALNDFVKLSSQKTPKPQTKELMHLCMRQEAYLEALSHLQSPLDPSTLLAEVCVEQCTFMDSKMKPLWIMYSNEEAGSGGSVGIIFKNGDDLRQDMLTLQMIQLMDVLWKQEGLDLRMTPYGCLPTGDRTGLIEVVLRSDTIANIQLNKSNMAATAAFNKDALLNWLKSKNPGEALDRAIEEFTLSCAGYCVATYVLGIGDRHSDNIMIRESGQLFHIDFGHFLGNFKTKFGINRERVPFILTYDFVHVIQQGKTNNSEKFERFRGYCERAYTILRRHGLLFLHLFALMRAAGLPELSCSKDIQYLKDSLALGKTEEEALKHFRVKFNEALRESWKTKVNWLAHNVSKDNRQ
Sequence (P27986 whole entry partner): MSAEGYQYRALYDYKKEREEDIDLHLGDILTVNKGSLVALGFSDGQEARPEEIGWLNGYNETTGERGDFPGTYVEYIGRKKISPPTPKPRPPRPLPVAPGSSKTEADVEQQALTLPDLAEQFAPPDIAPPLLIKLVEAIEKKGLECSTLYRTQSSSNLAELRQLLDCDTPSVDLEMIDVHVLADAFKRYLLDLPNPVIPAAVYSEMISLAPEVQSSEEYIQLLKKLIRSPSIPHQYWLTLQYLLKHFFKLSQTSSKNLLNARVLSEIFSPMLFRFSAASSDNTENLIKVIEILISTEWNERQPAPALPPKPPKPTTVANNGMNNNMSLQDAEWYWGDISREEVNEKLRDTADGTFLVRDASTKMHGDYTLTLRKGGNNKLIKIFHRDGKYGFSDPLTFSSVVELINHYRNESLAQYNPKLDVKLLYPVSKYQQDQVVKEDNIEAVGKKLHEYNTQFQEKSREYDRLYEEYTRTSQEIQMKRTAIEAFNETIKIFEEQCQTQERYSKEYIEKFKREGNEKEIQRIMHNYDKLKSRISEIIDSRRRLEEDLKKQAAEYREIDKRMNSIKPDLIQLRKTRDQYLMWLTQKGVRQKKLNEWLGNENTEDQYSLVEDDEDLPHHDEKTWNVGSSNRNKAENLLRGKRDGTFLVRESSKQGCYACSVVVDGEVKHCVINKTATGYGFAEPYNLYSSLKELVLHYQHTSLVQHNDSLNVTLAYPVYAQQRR
Experiment: PI3K lipid kinase inhibition assay (TLC or HTRF), PI3K δ
Assay type: biochemical
Design: purchased Upstate
Settings: In Vitro
PROPERTY: IC50

Worked examples follow.
compound=Cc1ccccc1-n1c(Cn2cnc3c(N)ncnc32)cc2cccc(C)c2c1=O tgt="PI3K δ (Homo sapiens, UniProt O00329)" property=IC50 result="< 10000 nM"
compound=Cc1ccccc1-n1c(Cn2nc(-c3cccc(O)c3)c3c(N)nccc32)cc2cccc(C)c2c1=O tgt="PI3K δ (Homo sapiens, UniProt O00329)" property=IC50 result="< 100 nM"
compound="Cc1cccc2cc(C(C)Nc3nc(Cl)ncc3N)n(-c3ccccc3)c(=O)c12 (stereo not drawn)" tgt="PI3K δ (Homo sapiens, UniProt O00329)" property=IC50 result="> 10000 nM"
compound=Cc1cccc2cc(Cn3nc(-c4ccc(Cl)c(O)c4)c4c(N)ncnc43)n(C(C)C)c(=O)c12 tgt="PI3K δ (Homo sapiens, UniProt O00329)" property=IC50 result="< 100 nM"
compound=Cc1cccnc1-n1c(Cn2nc(-c3cccc(O)c3)c3c(N)ncnc32)cc2ccccc2c1=O tgt="PI3K δ (Homo sapiens, UniProt O00329)" property=IC50 result="< 1000 nM"

Shifting focus to the compound that follows.
Lab book: IC50 of `Cc1cccc2cc(Cn3nc(I)c4c(N)ncnc43)n(C(C)C)c(=O)c12` noted as < 10000 nM

---

Tested on: PI3K-δ specific basophil activation
Experiment: Anti-fCER1 BAT: PI3K-δ specific basophil activation in human whole blood
Format: cell-based
Conditions: read-out: Anti-fCER1 BAT (delta) EC50
PROPERTY: EC50

Bench note, PI3K-δ specific basophil activation: C[C@H](Nc1ncnc2[nH]cnc12)c1cc2cccc(Cl)c2c(=O)n1-c1ccccc1 [Compound 292] , EC50 reads 10 to 100 nM
